System: CHO-K1 cells
Assay Summary: Toxicity in RRA (loss of luciferase signal)
Measurement Parameters: Conc 20 μg/ml; 1=non-toxic, 0=toxic; toxicity = loss of signal (<0.75 fold increase)
Assay Readout: (%)APPI Toxicity

Structure As Smiles	(%)APPI Toxicity
CCC[C@H](CC(C)C)[C@@H](CO)NS(=O)(=O)c1ccc(Cl)cc1	1 (1=non-toxic)
CCCCCC[C@H](CC)[C@@H](CO)NS(=O)(=O)c1ccc(Cl)cc1	1 (1=non-toxic)
CC(C)C[C@@H](c1ccco1)[C@@H](CO)NS(=O)(=O)c1ccc(Br)cc1	1 (1=non-toxic)
CCC(CC)[C@@H](CO)NS(=O)(=O)c1ccc(Cl)cc1	1 (1=non-toxic)

q: Which measured (%)APPI Toxicity value corresponds to CC(C)[C@H](C)[C@@H](CO)NS(=O)(=O)c1ccc(Cl)cc1 ?
a: 1 (1=non-toxic)

q: Also CC(C)C[C@@H](C(C)C)[C@@H](CO)NS(=O)(=O)c1ccc(Br)cc1 ?
a: 1 (1=non-toxic)

q: Same again, this time with CCCCC[C@H](C)[C@@H](CO)NS(=O)(=O)c1ccc(Cl)cc1
a: 1 (1=non-toxic)

q: For CCCCC[C@H](C)[C@@H](CO)NS(=O)(=O)c1ccc(Br)cc1 then?
a: 1 (1=non-toxic)

q: Would you kindly repeat that for CCC[C@H](CC)[C@@H](CO)NS(=O)(=O)c1ccc(Cl)cc1 ?
a: 1 (1=non-toxic)
